# System: Staphylococcus aureus
# procedure-details: Antimicrobial activity against Staphylococcus aureus after 24 hrs […]
# Assay type: functional
Labelling field: enter criterion met if recorded MIC is less than 4 µg/mL. Enter criterion not met if it equals or exceeds that cut-off.

As a guide, the following entries are already answered.
* Cc1ccc(-c2nnc(-c3cnc4nc(-c5ccc(Br)cc5)c(Nc5ccccc5)n4c3)o2)cc1 | criterion not met
* O=[N+]([O-])c1ccc(-c2cnc(-c3cnc4nc(-c5ccc(Br)cc5)c(Nc5ccccc5)n4c3)[nH]2)cc1 | criterion not met
* Clc1ccc2nc(-c3cnc4nc(-c5ccc(Br)cc5)c(Nc5ccccc5)n4c3)[nH]c2c1 | criterion met
* Cc1ccc(-c2cnc(-c3cnc4nc(-c5ccc(Br)cc5)c(Nc5ccccc5)n4c3)[nH]2)cc1 | criterion not met
* CN[C@H](CC(C)C)C(=O)N[C@H]1C(=O)N[C@@H](CC(N)=O)C(=O)N[C@H]2C(=O)N[C@H]3C(=O)N[C@H](C(=O)N[C@H](C(=O)O)c4cc(O)cc(O)c4-c4cc3ccc4O)[C@H](O)c3ccc(c(Cl)c3)Oc3cc2cc(c3O[C@@H]2O[C@H](CO)[C@@H](O)[C@H](O)[C@H]2O[C@H]2C[C@](C)(N)[C@H](O)[C@H](C)O2)Oc2ccc(cc2Cl)[C@H]1O [VANCOMYCIN] | criterion met
* Brc1ccc(-c2nc3ccc(-c4nc5ccc(Oc6ccccc6)cc5[nH]4)cn3c2Nc2ccccc2)cc1 | criterion not met
* Fc1ccc(-c2nnc(-c3ccc4nc(-c5ccc(Oc6ccccc6)cc5)c(Nc5ccccc5)n4c3)o2)cc1 | criterion not met

Next molecule, please.
Data request: Consider "O=[N+]([O-])c1ccc(-c2nnc(-c3cnc4nc(-c5ccc(Br)cc5)c(Nc5ccccc5)n4c3)o2)cc1" . Does its MIC lie strictly below 4 µg/mL?
Data returned: criterion met

====

# Test system: Pseudomonas aeruginosa
# procedure-details: Antimicrobial activity against Pseudomonas aeruginosa after 24 hrs […]
# Format: functional
# MIC per record follows
Express the result in µg/mL but write the number alone.

- CC1(C)S[C@@H]2[C@H](NC(=O)[C@H](N)c3ccc(O)cc3)C(=O)N2[C@H]1C(=O)O: 14.5
- CN[C@H](CC(C)C)C(=O)N[C@H]1C(=O)N[C@@H](CC(N)=O)C(=O)N[C@H]2C(=O)N[C@H]3C(=O)N[C@H](C(=O)N[C@H](C(=O)O)c4cc(O)cc(O)c4-c4cc3ccc4O)[C@H](O)c3ccc(c(Cl)c3)Oc3cc2cc(c3O[C@@H]2O[C@H](CO)[C@@H](O)[C@H](O)[C@H]2O[C@H]2C[C@](C)(N)[C@H](O)[C@H](C)O2)Oc2ccc(cc2Cl)[C@H]1O: 23.5
- Cc1ccc(-c2cnc(-c3cnc4nc(-c5ccc(Br)cc5)c(Nc5ccccc5)n4c3)[nH]2)cc1: 11.4
- Brc1ccc(-c2nc3ccc(-c4nc5ccc(Oc6ccccc6)cc5[nH]4)cn3c2Nc2ccccc2)cc1: 41.1
- Cc1ccc(-c2nc3ccc(-c4nnc(-c5ccc([N+](=O)[O-])cc5)o4)cn3c2Nc2ccccc2)cc1: 12.6

Now let's try a different one.
Data request: Recorded MIC of "Clc1ccc(-c2nnc(-c3cnc4nc(-c5ccc(Br)cc5)c(Nc5ccccc5)n4c3)o2)cc1" , please.
Data returned: 1.56

====

# Test system: Staphylococcus aureus
# procedure-details: Antimicrobial activity against Staphylococcus aureus after 24 hrs […]
# Type: functional
Labelling field: enter Condition met if recorded MIC is less than 5 µg/mL. Enter Condition not met if it equals or exceeds that cut-off.

As a guide, the following entries are already answered.
* Cc1ccc(-c2nc3ncc(-c4nc5ccc(F)cc5[nH]4)cn3c2Nc2ccccc2)cc1 | Condition not met
* Clc1ccc(-c2cnc(-c3ccc4nc(-c5ccc(Br)cc5)c(Nc5ccccc5)n4c3)[nH]2)cc1 | Condition met
* Fc1ccc(-c2cnc(-c3ccc4nc(-c5ccc(Br)cc5)c(Nc5ccccc5)n4c3)[nH]2)cc1 | Condition met
* Cc1ccc(-c2nc3ccc(-c4nc5ccc(Oc6ccccc6)cc5[nH]4)cn3c2Nc2ccccc2)cc1 | Condition not met
* Cc1ccc(-c2nnc(-c3ccc4nc(-c5ccc(Br)cc5)c(Nc5ccccc5)n4c3)o2)cc1 | Condition not met
* Cc1ccc(-c2nc3ccc(-c4nnc(-c5ccc([N+](=O)[O-])cc5)o4)cn3c2Nc2ccccc2)cc1 | Condition not met

Data request: Consider "Fc1ccc(-c2nnc(-c3cnc4nc(-c5ccc(Br)cc5)c(Nc5ccccc5)n4c3)o2)cc1" . Does its MIC lie strictly below 5 µg/mL?
Data returned: Condition met

Data request: Please do the same for "Fc1ccc(-c2cnc(-c3cnc4nc(-c5ccc(Br)cc5)c(Nc5ccccc5)n4c3)[nH]2)cc1" as well.
Data returned: Condition met

Data request: Please do the same for "Clc1ccc(-c2nnc(-c3cnc4nc(-c5ccc(Br)cc5)c(Nc5ccccc5)n4c3)o2)cc1" as well.
Data returned: Condition met
